Data provenance is patent US20240300923A1.

- experimental-system: human cKit kinase (Homo sapiens (Human))
- Sequence (P10721 26-976): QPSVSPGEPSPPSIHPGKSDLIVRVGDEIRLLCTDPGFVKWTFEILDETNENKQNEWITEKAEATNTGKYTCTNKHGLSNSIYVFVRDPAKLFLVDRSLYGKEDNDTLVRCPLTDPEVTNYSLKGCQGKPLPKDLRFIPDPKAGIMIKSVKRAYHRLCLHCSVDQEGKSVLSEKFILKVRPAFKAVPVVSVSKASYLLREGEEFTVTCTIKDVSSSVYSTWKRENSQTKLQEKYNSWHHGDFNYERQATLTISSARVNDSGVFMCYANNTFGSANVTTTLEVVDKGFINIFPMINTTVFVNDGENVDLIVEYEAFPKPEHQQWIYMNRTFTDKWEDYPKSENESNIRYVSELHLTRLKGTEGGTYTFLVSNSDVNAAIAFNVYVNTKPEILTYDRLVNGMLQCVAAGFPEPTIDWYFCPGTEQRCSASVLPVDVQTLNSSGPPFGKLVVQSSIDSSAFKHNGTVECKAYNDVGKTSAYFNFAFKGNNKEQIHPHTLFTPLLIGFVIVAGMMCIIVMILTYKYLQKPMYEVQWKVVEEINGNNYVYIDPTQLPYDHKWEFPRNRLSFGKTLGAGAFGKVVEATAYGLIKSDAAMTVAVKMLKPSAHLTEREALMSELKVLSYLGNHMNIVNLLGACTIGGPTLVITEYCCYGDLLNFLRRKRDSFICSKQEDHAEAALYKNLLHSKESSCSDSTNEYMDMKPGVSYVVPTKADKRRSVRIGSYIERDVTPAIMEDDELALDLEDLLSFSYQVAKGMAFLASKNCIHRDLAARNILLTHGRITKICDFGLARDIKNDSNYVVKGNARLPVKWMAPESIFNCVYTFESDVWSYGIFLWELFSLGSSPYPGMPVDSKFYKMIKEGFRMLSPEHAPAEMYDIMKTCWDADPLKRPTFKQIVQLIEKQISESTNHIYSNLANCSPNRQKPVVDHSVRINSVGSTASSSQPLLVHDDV
- test-protocol: cKit enzyme assay (LANCE, Eurofins CEREP)
- condition-details: human recombinant enzyme, 50 μM ATP; geometric mean of at least n=2, * = single experiment
endpoint-label: IC50 (µM)
Provide only the numeric value, understood in µM.

**Q:** # input compound: COc1cc2nn([C@@H]3CC[C@@H](N(C)C(C)=O)C[C@@H]3C)cc2cc1C(=O)Nc1cccn(C)c1=O [Example 4] ; wanted: its IC50
**A:** 18.3

**Q:** # input compound: COc1cc2nn([C@H]3CC[C@H](N(C)C(C)=O)CC3)cc2cc1C(=O)Nc1cccn(C)c1=O [Example 1] ; wanted: its IC50
**A:** 13

**Q:** # input compound: COc1cc2nn([C@H]3CC[C@H](N4CCCC4=O)CC3)cc2cc1C(=O)Nc1cccn(C)c1=O [Example 18] ; wanted: its IC50
**A:** 2.4

**Q:** # input compound: COc1cc2nn([C@H]3CC[C@H](n4ccnc4C(C)O)CC3)cc2cc1C(=O)Nc1cccn(C)c1=O (single isomer, unassigned) [Example 29] ; wanted: its IC50
**A:** 8.4

**Q:** # input compound: COc1cc2nn([C@H]3CC[C@H](n4ccnc4C(C)O)CC3)cc2cc1C(=O)Nc1cccn(C)c1=O (single isomer, unassigned) [Example 28] ; wanted: its IC50
**A:** 10.6

**Q:** # input compound: COc1cc2nn([C@H]3CC[C@H](N(C)C(=O)[C@@H](C)O)CC3)cc2cc1C(=O)Nc1cccn(C2CC2)c1=O [Example 12] ; wanted: its IC50
**A:** 58.2

**Q:** # input compound: COc1cc2nn([C@H]3CC[C@H](N(C)C(=O)[C@H](C)O)CC3)cc2cc1C(=O)Nc1cccn(C2CC2)c1=O [Example 11] ; wanted: its IC50
**A:** 36.3

**Q:** # input compound: COc1cc2nn([C@H]3CC[C@H](n4ccccc4=O)CC3)cc2cc1C(=O)Nc1cccn(C)c1=O [Example 22] ; wanted: its IC50
**A:** 26.2

***
**Q:** # input compound: COc1cc2nn([C@H]3CC[C@H](N(C)C(=O)[C@@H](C)O)CC3)cc2cc1C(=O)Nc1cccn(CC#N)c1=O [Example 10] ; wanted: its IC50
**A:** 2.5

**Q:** # input compound: COc1cc2nn([C@H]3CC[C@H](N(C)C(=O)[C@@H](C)O)CC3)cc2cc1C(=O)Nc1cccn(C)c1=O [Example 8] ; wanted: its IC50
**A:** 7

**Q:** # input compound: COc1cc2nn([C@H]3CC[C@H](n4cc(C(C)(C)O)nn4)CC3)cc2cc1C(=O)Nc1cccn(C)c1=O [Example 30] ; wanted: its IC50
**A:** 6.9
